# experimental context: human, microsomes
# Method: Liver Microsomal Stability Protocol Test compounds and one control compound (verapamil) were tested in 3 different species in duplicate sets. Test compound concentration: 1 uM; Protein concentration: 0.5 mg/mL (for dog, rat, and human liver microsomes); Cofactor: NADPH-Regenerating system (NRS) solution; Time-points: 2, 12, 25, 45, and 65 minutes. […] After plates were vortexed, they were centrifuged for 30 minutes to remove proteins. […] In vitro measured t1/2 was used to calculate Clint values.
Each item that follows carries a reported Human Pred Cl..
Report as a plain number; the unit L/H/kg is understood.

molecule	property name	measure unit	numeric value
COC(=O)N[C@H](C(=O)N[C@@H](Cc1ccc(C#Cc2ccc(N3CC4CCC(C3)N4C3COC3)nc2)cc1)[C@@H](O)CN(Cc1ccc(-c2ccccn2)cc1)NC(=O)[C@@H](NC(=O)OC)C(C)(C)C(F)(F)F)C(C)(C)C(F)(F)F [Example 56]	Human Pred Cl.	L/H/kg	0.17

Ask: Report Human Pred Cl. for COC(=O)N[C@H](C(=O)N[C@@H](Cc1ccc(-c2ccn(CC(F)F)n2)cc1)[C@@H](O)CN(Cc1c(F)cc(-c2cnc(N3CC4CCC(C3)N4C3COC3)nc2)cc1F)NC(=O)[C@@H](NC(=O)OC)C(C)(C)C(F)(F)F)C(C)(C)C(F)(F)F [Example 212] please.
Reply: 0.33

# credit: patent US10294234B2
